The measured values listed here are drawn from ChEMBL document CHEMBL5512629.

molecular target: Ectonucleotide pyrophosphatase/phosphodiesterase family member 1 (Homo sapiens); assay: Inhibition of human ENPP1
Sequence (P22413 whole entry): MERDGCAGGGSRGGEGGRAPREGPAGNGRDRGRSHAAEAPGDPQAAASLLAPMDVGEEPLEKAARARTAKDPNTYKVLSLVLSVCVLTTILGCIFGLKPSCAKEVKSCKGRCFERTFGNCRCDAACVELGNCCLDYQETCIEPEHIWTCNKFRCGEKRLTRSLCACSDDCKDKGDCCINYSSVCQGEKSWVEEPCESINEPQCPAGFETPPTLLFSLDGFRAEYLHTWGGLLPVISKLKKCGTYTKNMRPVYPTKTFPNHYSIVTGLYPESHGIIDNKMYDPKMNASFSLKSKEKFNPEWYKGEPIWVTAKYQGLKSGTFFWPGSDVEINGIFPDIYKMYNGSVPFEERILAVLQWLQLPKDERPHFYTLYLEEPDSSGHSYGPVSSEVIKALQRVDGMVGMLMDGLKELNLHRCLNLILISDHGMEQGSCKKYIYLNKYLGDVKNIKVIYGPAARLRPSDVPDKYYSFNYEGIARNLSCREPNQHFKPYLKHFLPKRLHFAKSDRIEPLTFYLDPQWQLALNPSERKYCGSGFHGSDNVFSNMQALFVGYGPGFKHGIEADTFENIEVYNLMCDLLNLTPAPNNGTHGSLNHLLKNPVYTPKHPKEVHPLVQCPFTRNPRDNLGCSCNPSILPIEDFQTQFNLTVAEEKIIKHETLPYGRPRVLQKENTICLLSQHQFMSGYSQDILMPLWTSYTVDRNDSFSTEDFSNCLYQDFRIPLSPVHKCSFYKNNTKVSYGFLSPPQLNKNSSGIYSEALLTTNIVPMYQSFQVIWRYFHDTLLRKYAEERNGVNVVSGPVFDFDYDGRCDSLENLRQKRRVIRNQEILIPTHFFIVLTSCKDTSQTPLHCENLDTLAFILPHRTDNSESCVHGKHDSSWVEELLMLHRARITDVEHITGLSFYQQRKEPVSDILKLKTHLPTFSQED
pIC50: −log10 of the molar value.

# SMILES RECORD, pIC50
data = [
    ("COc1cc2cc(-n3cc(C)c4ccccc43)n3c4ccccc4c(C)c3c2cc1OC", 6.44),
]

----------
experiment: Oral bioavailability in mouse; format: ADME, organism-based; settings: in vivo
ASSAY READOUT: bioavailability (%)

# SMILES RECORD, ASSAY READOUT, OBSERVED MEASUREMENT
rows = [
    ("Cn1nc(Cc2ccc(NS(N)(=O)=O)cc2)c2ccccc2c1=O", "bioavailability", 65),
]
